Hello, the source for this data is patent US7858635B2, in case you need it.

# test.target: M1 muscarinic receptor (Homo sapiens)
# Construct: expressed in transfected cells; host or cells: CHO cells (M1-CHO, under zeocin and G418 selection)
# Sequence (P11229 1-460): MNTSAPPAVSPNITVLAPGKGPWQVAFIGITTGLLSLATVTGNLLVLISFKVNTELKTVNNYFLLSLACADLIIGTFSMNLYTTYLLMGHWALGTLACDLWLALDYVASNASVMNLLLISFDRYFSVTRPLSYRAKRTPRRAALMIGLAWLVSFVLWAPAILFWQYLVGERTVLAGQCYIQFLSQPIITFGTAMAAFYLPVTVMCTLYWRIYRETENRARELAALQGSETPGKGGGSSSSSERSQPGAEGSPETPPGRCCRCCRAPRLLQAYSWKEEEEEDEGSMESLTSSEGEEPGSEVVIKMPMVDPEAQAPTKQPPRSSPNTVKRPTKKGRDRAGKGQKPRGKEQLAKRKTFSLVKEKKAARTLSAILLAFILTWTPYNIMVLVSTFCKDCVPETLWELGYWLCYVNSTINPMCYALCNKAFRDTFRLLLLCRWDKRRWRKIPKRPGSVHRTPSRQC
# experiment.summary: Functional mobilization of intracellular calcium (FLIPR, Fluo-3), M1-CHO cells
# Format: cell-based
# condition.context: compound nos. 1-454; 100% efficacy is the maximum response obtained with the Carbachol control; read-out: M1 Efficacy
Emax for assorted compounds
measurement.kind: Emax

>>> print(df.to_string())
                                    compound                            test_target  measurement_kind  measured_result
 0  CC(C)C(=O)N(C)[C@H]1CC2(CCN(C[C@H]3C[C@H]4CC[C@H]3C4)CC2)c2ccccc21  M1 muscarinic receptor (Homo sapiens)              Emax            < 65%
 1  CCOC(=O)N1CCC(N2CCC3(CC2)CN(C(C)=O)c2ccc(-c4ccncc4)cc23)CC1  M1 muscarinic receptor (Homo sapiens)              Emax            < 65%
 2  COC(=O)N1CC2(CCN(C3CC4CCC(C3)N4C(=O)OC(C)C)CC2)c2cc(F)ccc21 (stereo not shown)  M1 muscarinic receptor (Homo sapiens)              Emax        65 to 85%
 3    Clc1ccc2c(c1)C1(CCO2)CCN(CC2CCOCC2)CC1  M1 muscarinic receptor (Homo sapiens)              Emax            < 65%
 4  COCCOC(=O)N1C2CCC1CC(N1CCC3(CC1)CN(C(=O)N(C)C)c1ccc(F)cc13)C2 (stereo not shown)  M1 muscarinic receptor (Homo sapiens)              Emax            < 65%
 5  CC(=O)N1CC2(CCN(C3CCN(C(=O)OC(C)C)CC3)CC2)c2cc(F)ccc21  M1 muscarinic receptor (Homo sapiens)              Emax        65 to 85%
 6  CC(C)NC(=O)N1C2CCC1CC(N1CCC3(CC1)COc1ccc(F)cc13)C2 (stereo not shown)  M1 muscarinic receptor (Homo sapiens)              Emax            < 65%
 7  CCOC(=O)N1C2CCC1CC(N1CCC3(CC1)CN(C(=O)OCCOC)c1ccc(F)cc13)C2 (stereo not shown)  M1 muscarinic receptor (Homo sapiens)              Emax        65 to 85%
 8  O=C(O[C@@H]1CCOC1)N1C2CCC1CC(N1CCC3(CC1)COc1ccc(F)cc13)C2 (stereo partly shown)  M1 muscarinic receptor (Homo sapiens)              Emax            < 65%
 9  COC(=O)N1C2CCC1CC(N1CCC3(CC1)CN(C(=O)c1cc(C)n(C)n1)c1ccc(F)cc13)C2 (stereo not shown)  M1 muscarinic receptor (Homo sapiens)              Emax        65 to 85%
10  CN(C)C(=O)N1CC2(CCN(C3CCN(c4cccc(F)c4)CC3)CC2)c2cc(F)ccc21  M1 muscarinic receptor (Homo sapiens)              Emax        65 to 85%
11  CCOC(=O)N1C2CCC1CC(N1CCC3(CC1)CN(C(=O)OC1CCC1)c1ccc(F)cc13)C2 (stereo not shown)  M1 muscarinic receptor (Homo sapiens)              Emax            > 85%
12  CCOC(=O)N1CCC(N2CCC3(CC2)CN(C(C)=O)c2ccc(-c4ccccc4F)cc23)CC1  M1 muscarinic receptor (Homo sapiens)              Emax            > 85%
13  CCOC(=O)N1CCC(N2CCC3(CC2)CN(C(=O)N2CCOCC2)c2ccc(F)cc23)CC1  M1 muscarinic receptor (Homo sapiens)              Emax            < 65%
14  COCCOC(=O)N1C2CCC1CC(N1CCC3(CC1)COc1ccc(F)cc13)C2 (stereo not shown)  M1 muscarinic receptor (Homo sapiens)              Emax        65 to 85%
15  CN(C)C(=O)N1CC2(CCN(C3CCN(C(=O)O[C@@H]4CCOC4)CC3)CC2)c2cc(F)ccc21  M1 muscarinic receptor (Homo sapiens)              Emax            > 85%
16  CC(=O)N1CC2(CCN(C3CCN(C(=O)O[C@H]4CCOC4)CC3)CC2)c2cc(C)ccc21  M1 muscarinic receptor (Homo sapiens)              Emax            < 65%
17  CCNC(=O)N1CC2(CCN(C3CC4CCC3C4)CC2)c2cc(C)ccc21 (stereo not shown)  M1 muscarinic receptor (Homo sapiens)              Emax            < 65%
18  CC(C)OC(=O)N1C2CCC1CC(N1CCC3(CC1)COc1ccc(F)cc13)C2 (stereo not shown)  M1 muscarinic receptor (Homo sapiens)              Emax        65 to 85%
